Overview of reported pIC50 across a group of molecules:
Test system: Aβ-38
assay-explanation: Aβ-38 MSD 3-plex ELISA, conditioned media of 2B7 cells
Format: cell-based
condition-info: Homo sapiens, 5 hours treatment, read-out: Aβ 38 IC50
pIC50: −log10 of the molar value.

{"columns": ["line-notation", "assay-target", "pIC50"],
 "data": [
  ["CCO[C@@H]([C@H]1C[C@@H](C)[C@H]2[C@H](O1)[C@H](O)[C@@]1(C)[C@@H]3CC[C@H]4C(C)(C)[C@@H](O[C@H]5CN(C6CNC6)CCO5)CC[C@@]45C[C@@]35CC[C@]21C)C(C)(C)O", "Aβ-38", "6.30 to 7.00"],
  ["CCO[C@@H]([C@H]1C[C@@H](C)[C@H]2[C@H](O1)[C@H](O)[C@@]1(C)[C@@H]3CC[C@H]4C(C)(C)[C@@H](O[C@H]5CN(C6(C)CN(C)C6)CCO5)CC[C@@]45C[C@@]35CC[C@]21C)C(C)(C)O", "Aβ-38", "6.30 to 7.00"],
  ["CCO[C@@H]([C@H]1C[C@@H](C)[C@H]2[C@H](O1)[C@H](O)[C@@]1(C)[C@@H]3CC[C@H]4C(C)(C)[C@@H](O[C@H]5CN(CCN6CC(OC)C6)CCO5)CC[C@@]45C[C@@]35CC[C@]21C)C(C)(C)O", "Aβ-38", "6.00 to 6.30"],
  ["CCO[C@@H]([C@H]1C[C@@H](C)[C@H]2[C@H](O1)[C@H](O)[C@@]1(C)[C@@H]3CC[C@H]4C(C)(C)[C@@H](O[C@H]5CN(C6CN(CC(C)(C)C)C6)CCO5)CC[C@@]45C[C@@]35CC[C@]21C)C(C)(C)O", "Aβ-38", "6.00 to 6.30"]
]}

====

Test system: Aβ-38
assay-explanation: Aβ-38 MSD 3-plex ELISA, conditioned media of 2B7 cells
Type: cell-based
condition-info: Homo sapiens, 5 hours treatment, read-out: Aβ 38 IC50

{"columns": ["compound", "IC50"],
 "data": [
  ["CCO[C@@H]([C@H]1C[C@@H](C)[C@H]2[C@H](O1)[C@H](O)[C@@]1(C)[C@@H]3CC[C@H]4C(C)(C)[C@@H](O[C@H]5CN(CC6(O)CN(C7CCC7)C6)CCO5)CC[C@@]45C[C@@]35CC[C@]21C)C(C)(C)O [Compound I-44]", "100 to 500 nM"],
  ["CCO[C@@H]([C@H]1C[C@@H](C)[C@H]2[C@H](O1)[C@H](O)[C@@]1(C)[C@@H]3CC[C@H]4C(C)(C)[C@@H](O[C@H]5CN(C6CN(CC(=O)N7CCC7)C6)CCO5)CC[C@@]45C[C@@]35CC[C@]21C)C(C)(C)O [Compound I-8]", "1000 to 5000 nM"],
  ["CCO[C@@H]([C@H]1C[C@@H](C)[C@H]2[C@H](O1)[C@H](O)[C@@]1(C)[C@@H]3CC[C@H]4C(C)(C)[C@@H](O[C@H]5CN(CC6CN(C7CCC7)C6)CCO5)CC[C@@]45C[C@@]35CC[C@]21C)C(C)(C)O [Compound I-23]", "100 to 500 nM"],
  ["CCO[C@@H]([C@H]1C[C@@H](C)[C@H]2[C@H](O1)[C@H](O)[C@@]1(C)[C@@H]3CC[C@H]4C(C)(C)[C@@H](O[C@H]5CN(CC6(O)CN(CC(C)(C)O)C6)CCO5)CC[C@@]45C[C@@]35CC[C@]21C)C(C)(C)O [Compound I-47]", "100 to 500 nM"]
]}

====

System: Aβ-40
assay-explanation: Aβ-40 MSD 3-plex ELISA, conditioned media of 2B7 cells
Format: cell-based
condition-info: Homo sapiens, 5 hours treatment, read-out: Aβ 40 IC50
pIC50: −log10 of the molar value.
Reported pIC50 values for a set of molecules
measurement-name: pIC50

{"columns": ["molecule", "measurement-name", "measured-result"],
 "data": [
  ["CCO[C@@H]([C@H]1C[C@@H](C)[C@H]2[C@H](O1)[C@H](O)[C@@]1(C)[C@@H]3CC[C@H]4C(C)(C)[C@@H](O[C@H]5CN(CC6CN(C7CCC7)C6)CCO5)CC[C@@]45C[C@@]35CC[C@]21C)C(C)(C)O [Compound I-23]", "pIC50", "5.30 to 6.00"],
  ["CCO[C@@H]([C@H]1C[C@@H](C)[C@H]2[C@H](O1)[C@H](O)[C@@]1(C)[C@@H]3CC[C@H]4C(C)(C)[C@@H](O[C@H]5CN(C6(C)CN(CCOC)C6)CCO5)CC[C@@]45C[C@@]35CC[C@]21C)C(C)(C)O [Compound I-37]", "pIC50", "5.30 to 6.00"]
]}

====

Property: IC50; scope: individual compounds
Test system: Aβ-40
assay-explanation: Aβ-40 MSD 3-plex ELISA, conditioned media of 2B7 cells
Type: cell-based
condition-info: Homo sapiens, 5 hours treatment, read-out: Aβ 40 IC50
measurement-name: IC50

{"columns": ["line-notation", "measurement-name", "measured-result"],
 "data": [
  ["CCO[C@@H]([C@H]1C[C@@H](C)[C@H]2[C@H](O1)[C@H](O)[C@@]1(C)[C@@H]3CC[C@H]4C(C)(C)[C@@H](O[C@H]5CN([C@H]6CCN(CC)C6=O)CCO5)CC[C@@]45C[C@@]35CC[C@]21C)C(C)(C)O", "IC50", "> 5 µM"],
  ["CCO[C@@H]([C@H]1C[C@@H](C)[C@H]2[C@H](O1)[C@H](O)[C@@]1(C)[C@@H]3CC[C@H]4C(C)(C)[C@@H](O[C@H]5CN(CC6(O)CN(CCO)C6)CCO5)CC[C@@]45C[C@@]35CC[C@]21C)C(C)(C)O", "IC50", "0.501 to 1 µM"],
  ["CCO[C@@H]([C@H]1C[C@@H](C)[C@H]2[C@H](O1)[C@H](O)[C@@]1(C)[C@@H]3CC[C@H]4C(C)(C)[C@@H](O[C@H]5CN(C(C)(C)C6CN(C)C6)CCO5)CC[C@@]45C[C@@]35CC[C@]21C)C(C)(C)O", "IC50", "1 to 5 µM"],
  ["CCO[C@@H]([C@H]1C[C@@H](C)[C@H]2[C@H](O1)[C@H](O)[C@@]1(C)[C@@H]3CC[C@H]4C(C)(C)[C@@H](O[C@H]5CN(CCN(C)C)CCO5)CC[C@@]45C[C@@]35CC[C@]21C)C(C)(C)O", "IC50", "1 to 5 µM"],
  ["CCO[C@@H]([C@H]1C[C@@H](C)[C@H]2[C@H](O1)[C@H](O)[C@@]1(C)[C@@H]3CC[C@H]4C(C)(C)[C@@H](O[C@H]5CN(CC6CN(CC7(C)COC7)C6)CCO5)CC[C@@]45C[C@@]35CC[C@]21C)C(C)(C)O", "IC50", "1 to 5 µM"],
  ["CCO[C@@H]([C@H]1C[C@@H](C)[C@H]2[C@H](O1)[C@H](O)[C@@]1(C)[C@@H]3CC[C@H]4C(C)(C)[C@@H](O[C@H]5CN(C6(C)CN(C)C6)CCO5)CC[C@@]45C[C@@]35CC[C@]21C)C(C)(C)O", "IC50", "1 to 5 µM"],
  ["CCO[C@@H]([C@H]1C[C@@H](C)[C@H]2[C@H](O1)[C@H](O)[C@@]1(C)[C@@H]3CC[C@H]4C(C)(C)[C@@H](O[C@H]5CN(C6CNC6)CCO5)CC[C@@]45C[C@@]35CC[C@]21C)C(C)(C)O", "IC50", "1 to 5 µM"],
  ["CCO[C@@H]([C@H]1C[C@@H](C)[C@H]2[C@H](O1)[C@H](O)[C@@]1(C)[C@@H]3CC[C@H]4C(C)(C)[C@@H](O[C@H]5CN(CCN(C)CCOC)CCO5)CC[C@@]45C[C@@]35CC[C@]21C)C(C)(C)O", "IC50", "1 to 5 µM"],
  ["CCO[C@@H]([C@H]1C[C@@H](C)[C@H]2[C@H](O1)[C@H](O)[C@@]1(C)[C@@H]3CC[C@H]4C(C)(C)[C@@H](O[C@H]5CN(C6CN(CC(=O)N(C)C)C6)CCO5)CC[C@@]45C[C@@]35CC[C@]21C)C(C)(C)O", "IC50", "1 to 5 µM"],
  ["CCO[C@@H]([C@H]1C[C@@H](C)[C@H]2[C@H](O1)[C@H](O)[C@@]1(C)[C@@H]3CC[C@H]4C(C)(C)[C@@H](O[C@H]5CN(C6CN(CC(C)(C)C)C6)CCO5)CC[C@@]45C[C@@]35CC[C@]21C)C(C)(C)O", "IC50", "1 to 5 µM"],
  ["CCO[C@@H]([C@H]1C[C@@H](C)[C@H]2[C@H](O1)[C@H](O)[C@@]1(C)[C@@H]3CC[C@H]4C(C)(C)[C@@H](O[C@H]5CN(CCN6CCOCC6)CCO5)CC[C@@]45C[C@@]35CC[C@]21C)C(C)(C)O", "IC50", "> 5 µM"],
  ["CCO[C@@H]([C@H]1C[C@@H](C)[C@H]2[C@H](O1)[C@H](O)[C@@]1(C)[C@@H]3CC[C@H]4C(C)(C)[C@@H](O[C@H]5CN(CCN6CC(F)C6)CCO5)CC[C@@]45C[C@@]35CC[C@]21C)C(C)(C)O", "IC50", "1 to 5 µM"],
  ["CCO[C@@H]([C@H]1C[C@@H](C)[C@H]2[C@H](O1)[C@H](O)[C@@]1(C)[C@@H]3CC[C@H]4C(C)(C)[C@@H](O[C@H]5CN(C6CN(C(C)(C)C)C6)CCO5)CC[C@@]45C[C@@]35CC[C@]21C)C(C)(C)O", "IC50", "1 to 5 µM"],
  ["CCO[C@@H]([C@H]1C[C@@H](C)[C@H]2[C@H](O1)[C@H](O)[C@@]1(C)[C@@H]3CC[C@H]4C(C)(C)[C@@H](O[C@H]5CN(C6CCN(C(C)C)CC6)CCO5)CC[C@@]45C[C@@]35CC[C@]21C)C(C)(C)O", "IC50", "1 to 5 µM"],
  ["CCO[C@@H]([C@H]1C[C@@H](C)[C@H]2[C@H](O1)[C@H](O)[C@@]1(C)[C@@H]3CC[C@H]4C(C)(C)[C@@H](O[C@H]5CN(CC6(O)CN(CC(C)(C)O)C6)CCO5)CC[C@@]45C[C@@]35CC[C@]21C)C(C)(C)O", "IC50", "1 to 5 µM"]
]}
